Ref: the Immune Epitope Database (IEDB)

Experimental system: HLA-A*69:01
Assay explanation: IEDB peptide-MHC binding, purified MHC/direct/fluorescence; filed as Kd, often an IC50 or EC50 that approximates it; bounds were set here for any values at or beyond the usual limits of such assays
Test parameters: source organism: Corynebacterium glutamicum
pKd: −log10 of the molar value.
Property label: pKd

Fill in: pKd of ATFSRPGSL is ___
≤ 4.70

###

Experimental system: HLA-A*03:01
Assay explanation: IEDB peptide-MHC binding, purified MHC/competitive/fluorescence; filed as Kd, often an IC50 or EC50 that approximates it; bounds were set here for any values at or beyond the usual limits of such assays
Test parameters: source organism: Yersinia pseudotuberculosis IP 31758
Property label: Kd

Fill in: Kd of RQIRMTSTI is ___
≥ 20 µM

###

Experimental system: HLA-A*24:02
Assay explanation: IEDB peptide-MHC binding, purified MHC/competitive/fluorescence; bounds were set here for any values at or beyond the usual limits of such assays
Test parameters: source organism: Zaire ebolavirus
Give pIC50 for every item shown.
Numbers only, as −log10 of the molar value.

{"Primary sequence": "NFHQKKNEI", "pIC50": 5.09}

Pending sequence:
Fill in: pIC50 of RTLAAMPEE is ___
5.17

###

Experimental system: HLA-B*40:01
Assay explanation: IEDB peptide-MHC binding, purified MHC/direct/fluorescence; filed as Kd, often an IC50 or EC50 that approximates it; bounds were set here for any values at or beyond the usual limits of such assays
Test parameters: source organism: Burkholderia mallei
Property label: Kd

Fill in: Kd of EPFSRRHPL is ___
≥ 20 µM

###

Experimental system: HLA-A*03:01
Assay explanation: IEDB peptide-MHC binding, purified MHC/competitive/radioactivity; filed as Kd, often an IC50 or EC50 that approximates it; bounds were set here for any values at or beyond the usual limits of such assays
Test parameters: source organism: Hepacivirus hominis
Property label: Kd

Fill in: Kd of HSKKKCDDL is ___
≥ 78 µM

###

Experimental system: HLA-C*05:01
Assay explanation: IEDB peptide-MHC binding, purified MHC/direct/fluorescence; filed as Kd, often an IC50 or EC50 that approximates it; bounds were set here for any values at or beyond the usual limits of such assays
Test parameters: source organism: Escherichia coli B171
Property label: Kd (nM)
Give bare numbers, in nM.

Fill in: Kd of HADDIPVPV is ___
4

###

Experimental system: HLA-A*26:01
Assay explanation: IEDB peptide-MHC binding, purified MHC/competitive/radioactivity; filed as Kd, often an IC50 or EC50 that approximates it; bounds were set here for any values at or beyond the usual limits of such assays
Test parameters: source organism: Mammarenavirus machupoense
pKd: −log10 of the molar value.
Property label: pKd

Form entry - test system: HLA-A*26:01; read-out: pKd; sequence: GYVVSNFEGV
≤ 4.16

###

Experimental system: HLA-B*57:01
Assay explanation: IEDB peptide-MHC binding, purified MHC/competitive/fluorescence; filed as Kd, often an IC50 or EC50 that approximates it; bounds were set here for any values at or beyond the usual limits of such assays
Test parameters: source organism: Orthohantavirus andesense
pKd: −log10 of the molar value.
Property label: pKd

{"Primary sequence": "EVLKAMSLY", "pKd": "≤ 4.70"}

Pending sequence:
Fill in: pKd of DWMDRIEEF is ___
≤ 4.70

###

Experimental system: HLA-C*12:03
Assay explanation: IEDB peptide-MHC binding, purified MHC/direct/fluorescence; filed as Kd, often an IC50 or EC50 that approximates it; bounds were set here for any values at or beyond the usual limits of such assays
Test parameters: source organism: Vaccinia virus WR
Property label: Kd

Fill in: Kd of FTSSFYNYV is ___
≤ 1 nM

###

Experimental system: HLA-A*33:01
Assay explanation: IEDB peptide-MHC binding, purified MHC/competitive/radioactivity; filed as Kd, often an IC50 or EC50 that approximates it; bounds were set here for any values at or beyond the usual limits of such assays
Test parameters: source organism: Lassa virus Josiah
pKd: −log10 of the molar value.
Property label: pKd

Fill in: pKd of DAHKKNLYDH is ___
≤ 4.15

###

Experimental system: HLA-A*68:02
Assay explanation: IEDB peptide-MHC binding, purified MHC/competitive/fluorescence; filed as Kd, often an IC50 or EC50 that approximates it; bounds were set here for any values at or beyond the usual limits of such assays
Test parameters: source organism: Streptococcus pneumoniae TIGR4
Property label: Kd

Fill in: Kd of YQVEGATRV is ___
≥ 20 µM

###

Experimental system: HLA-B*46:01
Assay explanation: IEDB peptide-MHC binding, purified MHC/direct/fluorescence; filed as Kd, often an IC50 or EC50 that approximates it; bounds were set here for any values at or beyond the usual limits of such assays
Test parameters: source organism: Lake Victoria marburgvirus - Popp
pKd: −log10 of the molar value.
Property label: pKd

Form entry - test system: HLA-B*46:01; read-out: pKd; sequence: KNYPASLHK
≤ 4.70

###

Experimental system: HLA-A*02:02
Assay explanation: IEDB peptide-MHC binding, purified MHC/competitive/radioactivity; filed as Kd, often an IC50 or EC50 that approximates it; bounds were set here for any values at or beyond the usual limits of such assays
Test parameters: source organism: Hepacivirus hominis
pKd: −log10 of the molar value.
Property label: pKd

Fill in: pKd of HSKKKCDDL is ___
≤ 4.15

###

Experimental system: HLA-A*31:01
Assay explanation: IEDB peptide-MHC binding, purified MHC/competitive/radioactivity; filed as Kd, often an IC50 or EC50 that approximates it; bounds were set here for any values at or beyond the usual limits of such assays
Test parameters: source organism: Dengue virus 2 Jamaica/1409/1983
Property label: Kd (nM)
Give bare numbers, in nM.

Example results:
{"Primary sequence": "MLNILNRRRR", "Assay value": 14.1}
{"Primary sequence": "YMPSMKRFR", "Assay value": 100}
{"Primary sequence": "STYGWNLVR", "Assay value": 3.26}
{"Primary sequence": "IMQAGKRSLR", "Assay value": 5.8}
{"Primary sequence": "FMALVAFLR", "Assay value": 16.9}

Pending sequence:
Fill in: Kd of KAINVLRGFR is ___
0.824

###

Experimental system: HLA-B*57:01
Assay explanation: IEDB peptide-MHC binding, purified MHC/competitive/fluorescence; filed as Kd, often an IC50 or EC50 that approximates it; bounds were set here for any values at or beyond the usual limits of such assays
Test parameters: source organism: Orthohantavirus puumalaense
pKd: −log10 of the molar value.
Property label: pKd

Fill in: pKd of SPVMGVIGF is ___
≤ 4.70

###

Experimental system: HLA-A*02:01
Assay explanation: IEDB peptide-MHC binding, purified MHC/direct/fluorescence; filed as Kd, often an IC50 or EC50 that approximates it; bounds were set here for any values at or beyond the usual limits of such assays
Test parameters: source organism: Vibrio cholerae V52
Property label: Kd

Fill in: Kd of LPYPVLLKI is ___
≥ 20 µM

###

Experimental system: HLA-B*83:01
Assay explanation: IEDB peptide-MHC binding, purified MHC/competitive/fluorescence; filed as Kd, often an IC50 or EC50 that approximates it; bounds were set here for any values at or beyond the usual limits of such assays
Test parameters: source organism: Yersinia pseudotuberculosis IP 31758
Property label: Kd

Fill in: Kd of RQIRMTSTI is ___
≥ 5 µM

###

Experimental system: HLA-B*46:01
Assay explanation: IEDB peptide-MHC binding, purified MHC/direct/fluorescence; filed as Kd, often an IC50 or EC50 that approximates it; bounds were set here for any values at or beyond the usual limits of such assays
Test parameters: source organism: Cowpox virus
Property label: Kd

Fill in: Kd of ILQDRIRMY is ___
≥ 20 µM

###

Experimental system: HLA-A*23:01
Assay explanation: IEDB peptide-MHC binding, purified MHC/competitive/radioactivity; filed as Kd, often an IC50 or EC50 that approximates it; bounds were set here for any values at or beyond the usual limits of such assays
Test parameters: source organism: Mammarenavirus brazilense
Property label: pKd
Answers are plain numbers, as −log10 of the molar value.

Form entry - test system: HLA-A*23:01; read-out: pKd; sequence: RLKGVTCRLF
7.01

###

Experimental system: HLA-A*31:01
Assay explanation: IEDB peptide-MHC binding, purified MHC/direct/fluorescence; filed as Kd, often an IC50 or EC50 that approximates it; bounds were set here for any values at or beyond the usual limits of such assays
Test parameters: source organism: Salmonella enterica
pKd: −log10 of the molar value.
Property label: pKd

{"Primary sequence": "RRRQWASCM", "pKd": "≤ 4.70"}

Pending sequence:
Fill in: pKd of MQQSGDEAF is ___
≤ 4.70

###

Experimental system: HLA-B*44:03
Assay explanation: IEDB peptide-MHC binding, purified MHC/competitive/radioactivity; filed as Kd, often an IC50 or EC50 that approximates it; bounds were set here for any values at or beyond the usual limits of such assays
Test parameters: source organism: Hepatitis C virus (isolate 1)
pKd: −log10 of the molar value.
Property label: pKd

Fill in: pKd of KLVALGINAV is ___
≤ 4.15
